biological target: UniProt:Q04206
Sequence (Q04206 whole entry): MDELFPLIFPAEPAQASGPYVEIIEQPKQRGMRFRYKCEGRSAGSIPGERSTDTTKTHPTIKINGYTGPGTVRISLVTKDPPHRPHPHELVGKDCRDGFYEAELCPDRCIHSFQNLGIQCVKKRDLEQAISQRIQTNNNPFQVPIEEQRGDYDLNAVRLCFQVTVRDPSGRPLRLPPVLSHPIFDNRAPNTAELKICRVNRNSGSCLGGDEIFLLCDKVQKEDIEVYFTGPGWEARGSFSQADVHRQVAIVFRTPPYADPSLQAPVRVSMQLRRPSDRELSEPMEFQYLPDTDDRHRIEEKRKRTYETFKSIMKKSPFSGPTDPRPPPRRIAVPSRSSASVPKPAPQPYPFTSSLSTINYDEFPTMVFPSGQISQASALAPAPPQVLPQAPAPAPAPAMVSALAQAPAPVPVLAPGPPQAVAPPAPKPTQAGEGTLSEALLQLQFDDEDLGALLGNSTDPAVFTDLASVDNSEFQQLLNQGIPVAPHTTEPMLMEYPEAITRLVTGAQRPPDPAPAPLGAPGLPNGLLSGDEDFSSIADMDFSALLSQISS
Experimental Endpoint: pKd
Hey, just a heads up that pKd is the negative log base 10 of the concentration in molar.

QUERY: Could you tell me which pKd is on file for `C=C1C[C@]23C[C@@]1(O)CC[C@@H]2c1cccc(C)c1[C@@H]3C(=O)O` ?
RESULT: 5.20

====

assay: Selectivity index, ratio of IC50 for human Hs578Bst cells to EC50 for human HCC1599 cells measured after 24 hrs by CellTiter-Glo luminescent assay; type: toxicity; conditions: Hs578Bst cells (IC50) versus HCC1599 cells (EC50)
Experimental Endpoint: selectivity ratio at 24 h

QUERY: Could you tell me which selectivity ratio at 24 h is on file for `C=C1C[C@]23C[C@@]1(O)CC[C@H]2[C@@]12C=CC(=O)[C@@](C)(C(=O)O1)[C@H]2[C@@H]3C(=O)OC` ?
RESULT: 500

====

assay: Cytotoxicity against human Hs578Bst cells assessed as reduction in cell viability measured after 24 hrs by CellTiter-Glo luminescent assay; assay type: cell-based
Experimental Endpoint: IC50

Example cases with answers are listed next.
C=C1C[C@]23C[C@@]1(O)CC[C@H]2c1ccc(O)c(C)c1[C@@H]3C(=O)OC = > 10 µM
C=C1C[C@]23C[C@@]1(O)CC[C@H]2c1cc2c(C(=O)O)coc2c(C)c1[C@@H]3C(=O)O = > 10 µM
C=C1[C@@H]2OC(=O)[C@H]3c4c(C)cccc4[C@@H]4CC[C@]1(O)C[C@@]243 = > 10 µM

Next:
QUERY: Could you tell me which IC50 is on file for C=C1C[C@]23C[C@@]1(O)CC[C@H]2[C@@]12C=C[C@H](O)[C@@](C)(C(=O)O1)[C@H]2[C@@H]3C(=O)O [GIBBERELLIN A3] ?
RESULT: > 10 µM

Reference for the values: ChEMBL document CHEMBL4725436
